Entry source: paper PMC6445123

Collected kcat values appear next to each entry.
Experiment: Ac-VEID-AFC hydrolysis kinetics of recombinant Casp6 variants (Michaelis-Menten)
Assay type: biochemical, human
Details: Ac-VEID-AFC hydrolysis, mean ± SD
Output spec: scalar in s⁻¹, unitless text.

>  <molecule>
Casp6-WT: recombinant wild-type human Casp6 expressed in E. coli from full-length construct (protein, UniProt P55212 1-293, looked up, full-length, recombinant wild-type human Casp6 expressed in E. coli from full-length construct) MSSASGLRRGHPAGGEENMTETDAFYKREMFDPAEKYKMDHRRRGIALIFNHERFFWHLTLPERRGTCADRDNLTRRFSDLGFEVKCFNDLKAEELLLKIHEVSTVSHADADCFVCVFLSHGEGNHIYAYDAKIEIQTLTGLFKGDKCHSLVGKPKIFIIQACRGNQHDVPVIPLDVVDNQTEKLDTNITEVDAASVYTLPAGADFLMCYSVAEGYYSHRETVNGSWYIQDLCEMLGKYGSSLEFTELLTLVNRKVSQRRVDFCKDPSAIGKKQVPCFASMLTKKLHFFPKSN

>  <units>
s⁻¹

>  <measurement>
2.27

$$$$
>  <molecule>
Casp6-T182S: recombinant rare natural human Casp6 missense variant T182S (protein, UniProt P55212 1-293, looked up, variant T182S) MSSASGLRRGHPAGGEENMTETDAFYKREMFDPAEKYKMDHRRRGIALIFNHERFFWHLTLPERRGTCADRDNLTRRFSDLGFEVKCFNDLKAEELLLKIHEVSTVSHADADCFVCVFLSHGEGNHIYAYDAKIEIQTLTGLFKGDKCHSLVGKPKIFIIQACRGNQHDVPVIPLDVVDNQSEKLDTNITEVDAASVYTLPAGADFLMCYSVAEGYYSHRETVNGSWYIQDLCEMLGKYGSSLEFTELLTLVNRKVSQRRVDFCKDPSAIGKKQVPCFASMLTKKLHFFPKSN

>  <units>
s⁻¹

>  <measurement>
2.42

$$$$

We next turn to a different molecule, shown below.
Task item: Please look at this molecule and report its kcat: Casp6-L200A: Casp6 L200A alanine mutant from full-length construct, poorly self-processed (protein, UniProt P55212 1-293, looked up, variant L200A, full-length, Casp6 L200A alanine mutant from full-length construct, poorly self-processed) MSSASGLRRGHPAGGEENMTETDAFYKREMFDPAEKYKMDHRRRGIALIFNHERFFWHLTLPERRGTCADRDNLTRRFSDLGFEVKCFNDLKAEELLLKIHEVSTVSHADADCFVCVFLSHGEGNHIYAYDAKIEIQTLTGLFKGDKCHSLVGKPKIFIIQACRGNQHDVPVIPLDVVDNQTEKLDTNITEVDAASVYTAPAGADFLMCYSVAEGYYSHRETVNGSWYIQDLCEMLGKYGSSLEFTELLTLVNRKVSQRRVDFCKDPSAIGKKQVPCFASMLTKKLHFFPKSN
Reply: 0.05
